Kindly supply the reported half-life values for the records listed here.
biological target: proteinase K (Parengyodontium album, UniProt P06873); experiment: Resistance to proteinase K digestion; details: isolated enzyme proteinase k
Sequence (P06873 106-384, species assumed): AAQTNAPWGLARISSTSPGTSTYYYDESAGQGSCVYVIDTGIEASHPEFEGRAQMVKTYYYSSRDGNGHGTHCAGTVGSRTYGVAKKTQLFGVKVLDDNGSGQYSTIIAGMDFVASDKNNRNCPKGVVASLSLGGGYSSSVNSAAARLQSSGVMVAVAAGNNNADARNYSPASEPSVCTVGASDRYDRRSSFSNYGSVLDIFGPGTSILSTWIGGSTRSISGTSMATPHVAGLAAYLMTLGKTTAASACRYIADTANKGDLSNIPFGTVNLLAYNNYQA
No end group written: not given here.
Give bare numbers, in min.

{"Substance": "KTWNPATGKWTE [HP7]", "Experimental Result": 2}

The record that follows has no half-life shown yet.
What half-life value was documented for this substance, Ac-TWNPATGKWT-NH2 [HP7Δ] ? 0.6

The reported measurements were obtained from paper PMC7187762.
